List of Binding Capacity values.
- Tested on: monoclonal antibody MV-001
- test-name: In vitro binding assay (ELISA), BSA-coupled peptides, parental antibody MV-001
- Parameters: species or system C57/B16 mice
- experimental-conditions: Table 1C; peptide-BSA on plate, compared to original epitope

Binding Capacity recorded for this substance, APIQFRHC [p4750] , is 3 (strong binding :>20000)

Measured Binding Capacity, SEFSHSSC [p4712] : 3 (strong binding :>20000)

Lab book: Binding Capacity of SELRHSTC [p4744] noted as 3 (strong binding :>20000)

For this substance ( NWFPHPC [p4392] ), measured Binding Capacity is 1 (weak binding :<4000)
